assay: A549 cell cytotoxicity, dose response, cytotoxicity control, luminescence, dry powder, set 10 (AID 743356); details: CellTiter-Glo ATP luminescence, 72 h; at 26 µM unless noted
Active and inactive are the calls of the source.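 Rule for the calls: active = compounds that cut cell viability with a fitted half-maximal dose no more than twice the top valid dose; inconclusive = flat curve inhibiting 30 to 70%, or a poor fit; inactive = the rest, including any rise in viability.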
A collection of compounds and their measured max inhibition of viability %, active compounds read high

Examples with answers:
[[record]]
structure_smiles = "CN1c2ccc(-c3cccc(F)c3)cc2[C@@H]2[C@@H](CCN2C(=O)c2ccc3c(c2)OCO3)[C@@H]1CO"
result = "-3.11% (inactive)"

[[record]]
structure_smiles = "CN1c2ccc(-c3cccc(F)c3)cc2[C@H]2[C@H](CCN2C(=O)Nc2ccccc2F)[C@H]1CO"
result = "-15.8% [at 23.5 µM] (inactive)"


As a next step, examine the compound that follows.
Which max inhibition of viability %, active compounds read high is listed for COc1cccc(NC(=O)N2CC[C@@H]3[C@@H](CO)N(C)c4ccc(-c5cccc(F)c5)cc4[C@@H]32)c1 ? -9.56% (inactive)
